B1: scFv; the commonest letter at each place (parent)
chain 1: EVKLDETGGGLVQPGRPMKLSCVASGFTFSDYWMNWVRQSPEKGLEWVAQIRNKPYNYETYYSDSVKGRFTISRDDSKSSVYLQMNNLRVEDMGIYYCTGSYYGMDYWGQGTSVTVS
chain 2: DVVMTQTPLSLPVSLGDQASISCRSSQSLVHSNGNTYLRWYLQKPGQSPKVLIYKVSNRFSGVPDRFSGSGSGTDFTLKISRVEAEDLGVYFCSQSTHVPWTFGGGTKLEIK

- Variants of: B1
- Procedure Summary: yeast surface expression (ratio to wild type); higher = more expressed
- Experimental Context: format: scFv 4-4-20, heavy + light
Hi there, I'd appreciate the recorded yeast surface expression for every entry that follows.
When you answer, write just the number.

Prompt: Find the recorded yeast surface expression belonging to chain 1 S101K D106M and report it.
Response: 0.229

Prompt: Subsequent entry: chain 1 G104D M105W
Response: 0.703

Prompt: Subsequent entry: chain 1 W108L G109R
Response: 0.296

Prompt: Subsequent entry: chain 1 Y102C G109A
Response: 0.619

Prompt: Subsequent entry: chain 1 W108F
Response: 0.644

Prompt: Subsequent entry: chain 1 F29W D31F
Response: 0.475

Prompt: Subsequent entry: chain 1 Y32S M34K V37D
Response: 0.882

Prompt: Subsequent entry: chain 1 Y103L M105C
Response: 1

Prompt: Subsequent entry: chain 1 D31M Y32S
Response: 0.804

Prompt: Subsequent entry: chain 1 Y32C M34K
Response: 1.04

Prompt: Subsequent entry: chain 1 F29C W33Q
Response: 0.687

Prompt: Subsequent entry: chain 1 F29V W36L
Response: 0.332

Prompt: Subsequent entry: chain 1 M34N W36E
Response: 0.587

Prompt: Subsequent entry: chain 1 G104T Y107P
Response: 0.313

Prompt: Subsequent entry: chain 1 S101R W108Q
Response: 0.346

Prompt: Subsequent entry: chain 1 D106W G109A
Response: 0.168

Prompt: Subsequent entry: chain 1 D106V W108N
Response: 0.371

Prompt: Subsequent entry: chain 1 G100L
Response: 0.747

Prompt: Subsequent entry: chain 1 S101C Y107S
Response: 0.457

Prompt: Subsequent entry: chain 1 N35L
Response: 0.692

Prompt: Subsequent entry: chain 1 S101T Y103Q G109I
Response: 0.258

Prompt: Subsequent entry: chain 1 S101C G104C
Response: 0.33

Measured values drawn from the FLAb antibody collection (doi:10.7554/elife.23156) for this set.
